These entries and their values trace back to the supplement of paper PMC10567573.

Assay: protein stability index of a GFP-peptide fusion (GPS, HEK-293T) (PSI 1-6); higher = more stable;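 note: 24-mer peptide tiles fused after GFP, lentivirally expressed, FACS-sorted into six equal bins by GFP/DsRed ratio, decoded by Illumina sequencing, PSI is the read-weighted mean bin number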
Details: treatment: MLN4924 1 uM, 8 h; c terminus: a fixed tail appended
endpoint-label: protein stability index

> print(dat)
                                    seq  measured
 1    GLIPTGSGRHPSHSTTPSGPGDEV [ARFIP2]      5.04
 2  CKVGASSDPCGQLRPTLLLTSLHH [PNLIPRP1]      2.22
 3   KKSNSPGTASSGSSRLPQPSGAGK [ZC2HC1A]      5.23
 4      VPKDQRLQAIKAAIMLLPDENREV [DLC1]      3.85
 5    WKKQQKCDECGKIFSQSSALILHQ [ZNF396]      2.91
 6      CDVWSIGCILFEYYRGFTLFQTHE [CLK3]      3.25
 7    MLKEEHQIILENQKNFGLYVQEKR [RAD54B]      3.62
 8   VVENAEKILGYLNTNVLSRDLIPP [SLC6A17]      2.84
 9      QVDSLRPASFPTWGCDLGVVTRVV [BRF1]       2.5
10      EVRYYLRQIVSGLKYLHEQEILHR [PLK2]      2.91
11    GIPGWGFSGWISALVVPKGNTAVS [SCAMP3]      2.41
12     YTSAGTYGLDSVKKKCLEWLLNNL [GMCL1]      2.16
13      VDENDSHEGEDQFLSLEASTETLV [DLC1]      5.56
14    AREYYSEADASHCIQQILEAVLHC [CAMK2A]      2.55
15   PNILFYASTVLKSVGFQSNEAASL [SLC2A12]      2.38
16      SPINMEDQERIKVERKRLRNRLAA [JUNB]      4.65
17    KGAVNLHMEEEVEDFLLKKPIVPT [CDC25A]      4.13
18      NKVKVLDAPVPDCLGVHCDFHQGL [FSD1]      3.43
19     MQPESGANGTVIAEFILLGLLEAP [OR3A1]      2.33
20      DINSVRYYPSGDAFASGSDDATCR [GNB5]      4.22
21   YFLRGSLPWQGLKADTLKERYQKI [CSNK1G3]      2.14
22    LRKKILKIRHGWEDVTKINKTEIC [STEAP1]      2.56
23    LNLTRKLAQQLCTALLFLATPELS [DYRK1B]      3.21
24    GFEHYDLFFIDGSTPSDNIVRRFL [CDC14A]      2.16
25     GMLSYCDRYSEGIKHVLQTFGPIP [CRYL1]       2.2
26     DQDPSVLYFSIHRYEQGRFWPHLK [HDAC6]      2.16
27    NKRERSKLKNLRRKQRRRERWLQK [RNF180]      4.49
28       NWLHRRLAGQFLEELRKFSSLCYK [MOG]      2.57
29    YTFTDTFTEKLWPLFYPGIRAGRK [TRIM39]      2.46
30    ELEGDVAEPLAGPACVTVILPSCV [KLHL14]      3.14
31      QRKLKPPIVPKIAGDGDTSNFETY [PRKX]      4.47
32     QKLREESAARVVLTSLLACLPAGP [DUSP5]      2.06
33      SHQNLRVDDLSVEWDAMGGKVQDI [FSD1]      4.47
34    AYISLVEEEDQHMKLSLGGSEMGL [KLHL13]      3.06
35     KGTEKQTTSETQKSVQCGTWTKHA [NETO1]      4.82
36     AESWCYTQVKVVKFSYMWTINNFS [SPOPL]      3.01
37    LSEVLAQPQGALAPPNCESDSKTG [DNAAF3]      5.52
38    VFVCRVSAVLFYVNMYVSIVFFGL [P2RY14]      3.35
39      SSLFMDTEKSGKREFDVRQTPQVN [WEE1]      4.71
40  LPRKESPSVRSSKDGKLLAATLLL [TNFSF13B]      2.18
41     GNTESELKKLAEENPDLQEAYIAK [GDAP1]       5.5
42      RQLLRDFQSRLPYQYLHYALFKAN [P3H4]      2.16
43      EAKEAKGSGYEKLGPSRDPDPLNI [RTP4]      4.91
44   KNQGEENGFPDSTGDPLPEISKDN [EDARADD]      5.54
45     DIAAMTNSLFIDRQKCMAHRTRYP [TEKT4]      2.57
46    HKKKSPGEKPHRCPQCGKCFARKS [ZNF449]      4.23
47   TPCGPAQACMGGRCLHMDQLQDFN [ADAMTS4]      2.75
48    NGHDCWSLISLSNNTGKNLELKFV [TENT5D]      2.61
49     AKGDNVYEFHLEFLDLVKPEPVYK [HACD3]      2.54
50     DSARADDARQLFVLAGAAEEGFMT [GNAI1]      4.43
51     PDFNPEKHGSLNRYHNSHPLRERA [YJU2B]      4.37
52     TWVPMFLSTLLAPYQALRLWARGT [SOAT2]      2.72
53     CSKVSELTERLKVLEAKMTMLTVI [EMID1]      2.46
